- targetDesc: BCRP (Homo sapiens)
- Construct: inside-out membrane vesicles
- methodSummary: BCRP vesicular transport inhibition assay
- Type: biochemical
- conditionParameters: human; 0.04 μM, lowest concentration tested; read-out: inhibition of the transport of the probe substrate of BCRP
quantityName: inhibition at 0.04 µM (%)
The answer is to be given in %; state only the numeric part.

Can you look up the measured inhibition at 0.04 µM of CCn1c(=O)c(-c2cc(NC(=O)Nc3ccccc3)c(F)cc2Br)cc2cnc(NC)cc21 for me?
44

###

- targetDesc: human efflux transporter BCRP (Homo sapiens, UniProt Q9UNQ0)
- Construct: inside-out membrane vesicles
- methodSummary: BCRP vesicular transport inhibition assay
- Format: biochemical
- conditionParameters: 7 concentrations, vesicular transport inhibition; read-out: IC50, BCRP (estimated)
pIC50: −log10 of the molar value.
quantityName: pIC50

Can you look up the measured pIC50 of CCn1c(=O)c(-c2cc(NC(=O)Nc3ccccc3)c(F)cc2Br)cc2cnc(NC)cc21 for me?
~7.40

###

- targetDesc: human efflux transporter BCRP (Homo sapiens)
- Construct: inside-out membrane vesicles
- Sequence (Q9UNQ0 1-655): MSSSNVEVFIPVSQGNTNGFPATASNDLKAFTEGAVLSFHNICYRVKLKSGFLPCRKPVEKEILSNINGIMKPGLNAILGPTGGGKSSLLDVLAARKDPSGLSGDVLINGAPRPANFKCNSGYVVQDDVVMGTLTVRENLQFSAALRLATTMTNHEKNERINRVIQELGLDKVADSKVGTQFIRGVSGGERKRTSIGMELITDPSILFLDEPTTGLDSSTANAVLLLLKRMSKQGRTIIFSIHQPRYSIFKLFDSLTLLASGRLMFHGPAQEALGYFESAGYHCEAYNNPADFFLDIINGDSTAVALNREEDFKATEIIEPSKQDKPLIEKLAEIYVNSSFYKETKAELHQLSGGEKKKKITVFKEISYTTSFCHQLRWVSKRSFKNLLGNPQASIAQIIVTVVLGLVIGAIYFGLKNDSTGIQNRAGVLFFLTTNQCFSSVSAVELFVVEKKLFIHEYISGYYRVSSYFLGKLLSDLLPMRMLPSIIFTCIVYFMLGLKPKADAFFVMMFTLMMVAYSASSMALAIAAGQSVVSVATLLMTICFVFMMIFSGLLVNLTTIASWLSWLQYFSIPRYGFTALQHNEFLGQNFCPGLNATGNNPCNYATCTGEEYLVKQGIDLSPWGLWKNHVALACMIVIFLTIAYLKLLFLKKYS
- methodSummary: BCRP vesicular transport inhibition assay
- Format: biochemical
- conditionParameters: read-out: IC50, BCRP efflux transporter
quantityName: pIC50
Entry type: numeric. Quantity: pIC50, the -log10 of concentration in molar units.

Can you look up the measured pIC50 of CCn1c(=O)c(-c2cc(NC(=O)Nc3ccccc3)c(F)cc2Br)cc2cnc(NC)cc21 for me?
7.40
